Taken from ChEMBL document CHEMBL1144577.

assay: Ratio of drug level in brain to blood in rat FCA model of inflammatory pain at 30 mg/kg, po after 4 hrs; format: ADME, organism-based; set-up: dose 30 mg/kg, route oral; settings: brain and blood
measured endpoint: Kp at 4 h
Lab note: record the figure alone, no unit after it.

Find the recorded Kp at 4 h belonging to "Cc1ccc(-n2c(C)ccc2-c2cc(Cl)ccc2OCc2ccc(F)cc2)cc1C(=O)O" and report it.
0.4

---

experiment: Drug level in brain of rat FCA model of inflammatory pain at 30 mg/kg, po after 24 hrs; format: ADME, organism-based; set-up: dose 30 mg/kg, route oral; details: read-out: Drug uptake
measured endpoint: concentration at 24 h (nM)
Give just the numeric value; nM need not be written.

Find the recorded concentration at 24 h belonging to "Cc1ccc(-n2c(C)ccc2-c2cc(Cl)ccc2OCc2ccc(F)cc2)cc1C(=O)O" and report it.
31

---

test: Drug level in brain of rat FCA model of inflammatory pain at 30 mg/kg, po after 1 hr; format: ADME, organism-based; design: dose 30 mg/kg, route oral; conditions: read-out: Drug uptake
measured endpoint: concentration at 1 h
The number alone won't do; follow it with the unit.

Find the recorded concentration at 1 h belonging to "Cc1ccc(-n2c(C)ccc2-c2cc(Cl)ccc2OCc2ccc(F)cc2)cc1C(=O)O" and report it.
3.56 µM

---

tested on: Rattus norvegicus; assay: Normalized AUC (0 to t) in rat at 3 mg/kg, po; format: ADME, organism-based; parameters: dose 3 mg/kg, route oral; conditions: in vivo
Output Fulfilled for AUC/dose not less than 30 kg·min/L; output Not fulfilled otherwise.

{"entry smiles": "Cc1c(N)cc(-n2c(C)ccc2-c2cc(Br)ccc2OCc2ccc(F)cc2)cc1C(=O)O", "label value": "Fulfilled"}
{"entry smiles": "COc1ccc(-n2c(C)ccc2-c2cc(Br)ccc2OCc2ccc(F)cc2F)cc1C(=O)O", "label value": "Not fulfilled"}
{"entry smiles": "Cc1ccc(-c2cc(C(F)(F)F)ccc2OCc2ccccc2)n1-c1ccc(F)c(C(=O)O)c1", "label value": "Not fulfilled"}
{"entry smiles": "Cc1ccc(-c2cc(Cl)ccc2OCc2ccccc2)n1-c1cc(C(=O)O)c2ccccc2c1", "label value": "Not fulfilled"}
{"entry smiles": "Cc1ccc(-c2cc(Br)ccc2OCc2ccc(F)cc2)n1-c1cc(C(=O)O)c2ccccc2c1", "label value": "Not fulfilled"}
{"entry smiles": "Cc1c(N)cc(-n2c(C)ccc2-c2cc(C(F)(F)F)ccc2OCc2ccccc2)cc1C(=O)O", "label value": "Fulfilled"}
{"entry smiles": "Cc1c(N)cc(-n2c(C)ccc2-c2cc(Cl)ccc2OCc2ccccc2)cc1C(=O)O", "label value": "Fulfilled"}

Consider the record given below.
Please check the record "Cc1ccc(-n2c(C)ccc2-c2cc(Cl)ccc2OCc2ccc(F)cc2)cc1C(=O)O" and state if its AUC/dose is at or above 30 kg·min/L.
Not fulfilled

---

assay: Tmax in rat at 3 mg/kg, po; assay type: ADME, organism-based; parameters: dose 3 mg/kg, route oral; conditions: in vivo
measured endpoint: Tmax
The number alone won't do; follow it with the unit.

{"entry smiles": "Cc1c(N)cc(-n2c(C)ccc2-c2cc(Br)ccc2OCc2ccc(F)cc2)cc1C(=O)O", "Tmax": "66 min"}
{"entry smiles": "Cc1ccc(-n2c(C)ccc2-c2cc(Cl)ccc2OCc2ccc(F)cc2)cc1C(=O)O", "Tmax": "30 min"}
{"entry smiles": "Cc1c(N)cc(-n2c(C)ccc2-c2cc(Cl)ccc2OCc2ccccc2)cc1C(=O)O", "Tmax": "30 min"}
{"entry smiles": "Cc1ccc(-c2cc(Br)ccc2OCc2ccc(F)cc2)n1-c1cc(C(=O)O)c2ccccc2c1", "Tmax": "30 min"}
{"entry smiles": "Cc1ccc(-c2cc(Cl)ccc2OCc2ccccc2)n1-c1cc(C(=O)O)c2ccccc2c1", "Tmax": "240 min"}

Find the recorded Tmax belonging to "COc1ccc(-n2c(C)ccc2-c2cc(Br)ccc2OCc2ccc(F)cc2F)cc1C(=O)O" and report it.
30 min

Now give it for "Cc1ccc(-c2cc(C(F)(F)F)ccc2OCc2ccccc2)n1-c1ccc(F)c(C(=O)O)c1" too.
36 min

Now give it for "Cc1c(N)cc(-n2c(C)ccc2-c2cc(C(F)(F)F)ccc2OCc2ccccc2)cc1C(=O)O" too.
30 min

---

test: Blood clearance in rat at 1 mg/kg, iv or 3 mg/kg, po; format: ADME, organism-based
measured endpoint: clearance (mL/min/kg)
Give just the numeric value; mL/min/kg need not be written.

Find the recorded clearance belonging to "Cc1ccc(-n2c(C)ccc2-c2cc(Cl)ccc2OCc2ccc(F)cc2)cc1C(=O)O" and report it.
22

---

assay: Drug level in blood of rat FCA model of inflammatory pain at 30 mg/kg, po after 1 hr; format: ADME, organism-based; design: dose 30 mg/kg, route oral; conditions: read-out: Drug uptake
measured endpoint: concentration at 1 h (µM)
Give just the numeric value; µM need not be written.

Find the recorded concentration at 1 h belonging to "Cc1ccc(-n2c(C)ccc2-c2cc(Cl)ccc2OCc2ccc(F)cc2)cc1C(=O)O" and report it.
10.1

---

assay: Drug level in brain of rat FCA model of inflammatory pain at 30 mg/kg, po after 8 hrs; type: ADME, organism-based; design: dose 30 mg/kg, route oral; details: read-out: Drug uptake
measured endpoint: concentration at 8 h (nM)
Give just the numeric value; nM need not be written.

Find the recorded concentration at 8 h belonging to "Cc1ccc(-n2c(C)ccc2-c2cc(Cl)ccc2OCc2ccc(F)cc2)cc1C(=O)O" and report it.
753

---

biological target: Prostaglandin F2-alpha receptor (Homo sapiens, UniProt P43088); assay: Inhibition of human recombinant FP receptor expressed in CHO cells by calcium mobilisation assay
Sequence (P43088 whole entry): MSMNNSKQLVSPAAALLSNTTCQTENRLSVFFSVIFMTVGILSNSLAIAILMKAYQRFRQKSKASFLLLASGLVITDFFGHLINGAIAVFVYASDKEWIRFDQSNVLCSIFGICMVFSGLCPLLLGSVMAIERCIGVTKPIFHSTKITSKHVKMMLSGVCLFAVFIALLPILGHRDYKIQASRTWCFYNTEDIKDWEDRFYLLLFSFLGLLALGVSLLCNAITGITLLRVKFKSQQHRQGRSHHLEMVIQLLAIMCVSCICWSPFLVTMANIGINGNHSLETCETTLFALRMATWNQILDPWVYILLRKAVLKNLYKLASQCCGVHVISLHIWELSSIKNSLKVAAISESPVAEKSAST
measured endpoint: IC50

Find the recorded IC50 belonging to "Cc1ccc(-n2c(C)ccc2-c2cc(Cl)ccc2OCc2ccc(F)cc2)cc1C(=O)O" and report it.
> 3.16 µM

---

assay: Cmax in rat at 3 mg/kg, po; assay type: ADME, organism-based; design: dose 3 mg/kg, route oral; conditions: in vivo
# 1 = Cmax below 600 nM (exclusive); 0 = Cmax at/above 600 nM

Completed entries (count: 6):
{"entry smiles": "Cc1c(N)cc(-n2c(C)ccc2-c2cc(Br)ccc2OCc2ccc(F)cc2)cc1C(=O)O", "label value": 0}
{"entry smiles": "Cc1c(N)cc(-n2c(C)ccc2-c2cc(Cl)ccc2OCc2ccccc2)cc1C(=O)O", "label value": 0}
{"entry smiles": "Cc1ccc(-c2cc(C(F)(F)F)ccc2OCc2ccccc2)n1-c1ccc(F)c(C(=O)O)c1", "label value": 0}
{"entry smiles": "Cc1ccc(-c2cc(Br)ccc2OCc2ccc(F)cc2)n1-c1cc(C(=O)O)c2ccccc2c1", "label value": 1}
{"entry smiles": "Cc1c(N)cc(-n2c(C)ccc2-c2cc(C(F)(F)F)ccc2OCc2ccccc2)cc1C(=O)O", "label value": 0}
{"entry smiles": "COc1ccc(-n2c(C)ccc2-c2cc(Br)ccc2OCc2ccc(F)cc2F)cc1C(=O)O", "label value": 1}

Consider the record given below.
Report whether reported Cmax is lower than 600 nM (strictly) for "Cc1ccc(-c2cc(Cl)ccc2OCc2ccccc2)n1-c1cc(C(=O)O)c2ccccc2c1"
1

---

assay: Half life in rat at 1 mg/kg, iv or 3 mg/kg, po; format: ADME, organism-based; conditions: in vivo
measured endpoint: half-life (h)
Give just the numeric value; h need not be written.

Find the recorded half-life belonging to "Cc1ccc(-n2c(C)ccc2-c2cc(Cl)ccc2OCc2ccc(F)cc2)cc1C(=O)O" and report it.
4.6

---

assay: Ratio of drug level in brain to blood in rat FCA model of inflammatory pain at 30 mg/kg, po after 8 hrs; type: ADME, organism-based; set-up: dose 30 mg/kg, route oral; conditions: brain and blood
measured endpoint: Kp at 8 h
Lab note: record the figure alone, no unit after it.

Find the recorded Kp at 8 h belonging to "Cc1ccc(-n2c(C)ccc2-c2cc(Cl)ccc2OCc2ccc(F)cc2)cc1C(=O)O" and report it.
0.4

---

experiment: Ratio of drug level in brain to blood in rat FCA model of inflammatory pain at 30 mg/kg, po after 1 hr; format: ADME, organism-based; design: dose 30 mg/kg, route oral; details: brain and blood
measured endpoint: Kp at 1 h
Lab note: record the figure alone, no unit after it.

Find the recorded Kp at 1 h belonging to "Cc1ccc(-n2c(C)ccc2-c2cc(Cl)ccc2OCc2ccc(F)cc2)cc1C(=O)O" and report it.
0.4

---

assay: Drug level in brain of rat FCA model of inflammatory pain at 30 mg/kg, po after 6 hrs; type: ADME, organism-based; parameters: dose 30 mg/kg, route oral; conditions: read-out: Drug uptake
measured endpoint: concentration at 6 h

Find the recorded concentration at 6 h belonging to "Cc1ccc(-n2c(C)ccc2-c2cc(Cl)ccc2OCc2ccc(F)cc2)cc1C(=O)O" and report it.
913 nM
